Experiment: Inhibition of SARS-CoV-2 RdRp transfected in HEK293T cells incubated for 24 hrs by […]
A collection of compounds and their measured pEC50
Reminder that pEC50 is minus the log10 of a molar concentration.

smiles_structure=Cc1cccc(C(=O)CSc2c[nH]c3ccccc23)c1 numeric_readout=5.60
smiles_structure=O=C(CSc1c[nH]c2ccccc12)c1ccc(Cl)c(Cl)c1 numeric_readout=5.56

// switching to the query compound
Dear colleague, I am looking for the recorded pEC50 of the following compound: `CCOc1cccc(CNC(=O)CSc2cn(C(=O)OC(C)(C)C)c3ccccc23)c1`
5.85

---

Assay: Inhibition of SARS-CoV-2 RdRp transfected in human A549 cells incubated for 24 hrs by […]
PROPERTY_MEASURED: EC50 (nM)
Express it in nM; write the number only.

Dear colleague, I am looking for the recorded EC50 of the following molecule: `CCOc1cccc(CNC(=O)CSc2cn(C(=O)OC(C)(C)C)c3ccccc23)c1`
1180
